Test system: PSMA+LNCaP cells
Assay: Cell surface binding and internalization of 177Lu labeled compounds, without or with blocking by 2-PMPA
Format: cell-based
Conditions: 7.5 pmol precursor per 10^5 cells, 45 min, without blocking (n = 3)
Starred links: 1 amine or outer side, 2 acyl side, 3 side chain; linkers in the order of their positions; H or OH if unused. Non-standard residues stand in square brackets, D forms with d. Residues, ends and D or L forms follow the SMILES beside them. ξ: configuration not given here. *: point of attachment. DOTA = O=C(O)CN1CCN(CC(=O)O)CCN(CC(=O)*)CCN(CC(=O)O)CC1; EuK = O=C(O)CC[C@H](NC(=O)N[C@@H](CCCCN*)C(=O)O)C(=O)O; X2 = O=C(O)CCC(NC(=O)NC(CCCCN*)C(=O)O)C(=O)O; 2Nal = N[C@@H](Cc1ccc2ccccc2c1)C(=O)O; ξ2Nal = NC(Cc1ccc2ccccc2c1)C(=O)O; Trx = NC[C@H]1CC[C@H](C(=O)O)CC1; X1 = O=C(C1CCC(CN[*:1])CC1)[*:2]; Sar = CNCC(=O)O
value.type: Surface (% AR/10^5 cells)
Please state the figure in % AR/10^5 cells; there is no need to write the unit.

INSERT INTO results (molecule, test_target, value_type, endpoint_unit, result_value) VALUES
  ('CN(CC(=O)NCC1CCC(C(=O)NC(Cc2ccc3ccccc3c2)C(=O)NCCCCC(NC(=O)NC(CCC(=O)O)C(=O)O)C(=O)O)CC1)C(=O)CN(C)C(=O)CN(C)C(=O)CN(C)C(=O)CN(C)C(=O)CN(C)C(=O)CN(C)C(=O)CN(C)C(=O)CN(C)C(=O)CN(C)C(=O)CN1CCN(CC(=O)O)CCN(CC(=O)O)CCN(CC(=O)O)CC1 (stereo not shown)', 'PSMA+LNCaP cells', 'Surface', '% AR/10^5 cells', 0.45),
  ('CN(CC(=O)NCC1CCC(C(=O)NC(Cc2ccc3ccccc3c2)C(=O)NCCCCC(NC(=O)NC(CCC(=O)O)C(=O)O)C(=O)O)CC1)C(=O)CN(C)C(=O)CN(C)C(=O)CN(C)C(=O)CN(C)C(=O)CN(C)C(=O)CN(C)C(=O)CN(C)C(=O)CN(C)C(=O)CN(C)C(=O)CN(C)C(=O)CN(C)C(=O)CN(C)C(=O)CN(C)C(=O)CN(C)C(=O)CN1CCN(CC(=O)O)CCN(CC(=O)O)CCN(CC(=O)O)CC1 (stereo not shown)', 'PSMA+LNCaP cells', 'Surface', '% AR/10^5 cells', 0.52),
  ('CN(CC(=O)NCC1CCC(C(=O)NC(Cc2ccc3ccccc3c2)C(=O)NCCCCC(NC(=O)NC(CCC(=O)O)C(=O)O)C(=O)O)CC1)C(=O)CN(C)C(=O)CN(C)C(=O)CN(C)C(=O)CN(C)C(=O)CN1CCN(CC(=O)O)CCN(CC(=O)O)CCN(CC(=O)O)CC1 (stereo not shown) [DOTA-Sar5-Chx-2-NaI-Lys-urea-Glu] ({DOTA}-[Sar][Sar][Sar][Sar][Sar][X1][ξ2Nal]-X2)', 'PSMA+LNCaP cells', 'Surface', '% AR/10^5 cells', 0.47);

q: Surface lookup needed for CN(CC(=O)NC[C@H]1CC[C@H](C(=O)N[C@@H](Cc2ccc3ccccc3c2)C(=O)NCCCC[C@H](NC(=O)N[C@@H](CCC(=O)O)C(=O)O)C(=O)O)CC1)C(=O)CN(C)C(=O)CN(C)C(=O)CN1CCN(CC(=O)O)CCN(CC(=O)O)CCN(CC(=O)O)CC1 [DOTA-Sar3-Chx-2-NaI-Lys-urea-Glu] ({DOTA}-[Sar][Sar][Sar][Trx][2Nal]-EuK) , thanks.
a: 0.65
